Test System: Rhesus PDE2A3 (Macaca mulatta)
Sequence (B3VTJ2 1-941): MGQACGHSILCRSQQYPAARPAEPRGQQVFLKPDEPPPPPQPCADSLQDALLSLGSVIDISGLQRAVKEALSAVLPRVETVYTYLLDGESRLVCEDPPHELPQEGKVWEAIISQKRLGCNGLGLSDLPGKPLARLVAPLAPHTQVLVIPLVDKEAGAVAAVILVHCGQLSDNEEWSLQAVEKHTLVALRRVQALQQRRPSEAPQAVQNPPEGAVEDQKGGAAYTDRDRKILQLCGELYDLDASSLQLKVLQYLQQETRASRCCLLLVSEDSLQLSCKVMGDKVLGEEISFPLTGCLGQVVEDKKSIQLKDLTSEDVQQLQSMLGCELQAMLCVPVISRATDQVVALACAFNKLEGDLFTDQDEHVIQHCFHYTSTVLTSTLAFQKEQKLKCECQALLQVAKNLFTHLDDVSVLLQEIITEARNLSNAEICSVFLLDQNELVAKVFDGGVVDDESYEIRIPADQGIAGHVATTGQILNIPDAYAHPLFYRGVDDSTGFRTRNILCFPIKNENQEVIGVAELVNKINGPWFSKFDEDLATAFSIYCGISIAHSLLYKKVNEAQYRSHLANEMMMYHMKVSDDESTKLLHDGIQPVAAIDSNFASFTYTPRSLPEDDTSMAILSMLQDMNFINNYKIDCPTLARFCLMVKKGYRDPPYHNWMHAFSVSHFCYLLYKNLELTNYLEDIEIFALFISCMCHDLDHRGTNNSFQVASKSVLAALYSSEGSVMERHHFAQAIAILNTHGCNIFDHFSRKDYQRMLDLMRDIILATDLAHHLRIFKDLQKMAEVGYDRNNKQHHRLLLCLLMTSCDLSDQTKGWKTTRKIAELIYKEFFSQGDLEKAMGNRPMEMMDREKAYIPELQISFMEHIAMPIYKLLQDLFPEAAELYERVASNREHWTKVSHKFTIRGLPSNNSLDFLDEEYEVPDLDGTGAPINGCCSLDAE
Protocol: PDE2 fluorescence polarization (IMAP FP) inhibition assay, rhesus enzyme
Type: biochemical, rhesus macaque
Condition Info: Rhesus PDE2, Lab B; read-out: Rhesus PDE2 Ki (nM) - Lab B
// NB: equality with 7 nM counts as 0 (no); only Ki strictly below is 1 (yes)

Study these solved cases before continuing.
{"columns": ["Compound", "Class Label"],
 "data": [
  ["O=C(N[C@@H](c1ccc(SC(F)(F)F)c(F)c1)C1CC1)c1cc(=O)[nH]c(C2CC2)n1", "1 (yes)"],
  ["COc1ccc(Cc2nc(C(=O)N[C@@H](c3ccc(SC(F)(F)F)cc3)C(C)(C)C)cc(=O)[nH]2)cc1", "1 (yes)"],
  ["O=C(NCc1ccc(C(F)(F)F)cc1)c1cc(=O)[nH]c(-c2ccccc2)n1", "0 (no)"],
  ["CC[C@@H](NC(=O)c1cc(=O)[nH]c(Cc2ccc(OC)cc2)n1)c1ccc(OC(F)(F)F)c(F)c1", "1 (yes)"],
  ["CC(C)(C)[C@@H](NC(=O)c1cc(=O)[nH]c(-c2ncccn2)n1)c1ccc(OC(F)F)cc1", "0 (no)"],
  ["CC(NC(=O)c1cc(=O)[nH]c(-c2ccccc2)n1)c1ccc(S(C)(=O)=O)cc1 (centres unmarked)", "0 (no)"],
  ["CC(C)(NC(=O)c1cc(=O)[nH]c(-c2ccccc2)n1)c1ccc(F)cc1", "0 (no)"]
]}

# evaluate next
Enquiry: Strictly below 7 nM: is that where Ki of COc1ccc(C(C)(C)NC(=O)c2cc(=O)[nH]c(-c3ccccc3)n2)cc1 sits?
Return: 0 (no)

These entries and their values trace back to patent US9815796B2.
